Cited source for all entries: patent US9815787B2

Catalogue of Response (10 μM (%)) values
- TEST TARGET: OX2R (Homo sapiens, UniProt O43614)
- Construct: expressed in transfected cells; host or cells: CHO (Chinese hamster ovary) cells constitutively expressing the OX2R gene and NFAT-luciferase (CHOOX2R)
- MEASUREMENT DESCRIPTION: Evaluation of agonist activity against OX2R (CHOOX2R cells, Fura2AM fluorescence, FDSS3000)
- Type: cell-based
- CONDITION CONTEXT: test compound 10 μM; relative to orexin-A as full agonist (100%); CHOOX2R cells

Worked examples follow.
> print(dat)
                              line.notation                          test.target  experimental.result
1  COc1ccccc1C(=O)NCCNc1cccc(NS(=O)(=O)c2cc(-c3ccccc3Cl)ccc2OC)c1  OX2R (Homo sapiens, UniProt O43614)                  41%
2  COc1cccc(C(=O)NCCNc2cccc(NS(=O)(=O)c3cc(-c4cc(Cl)ccc4Cl)ccc3OC)c2)c1  OX2R (Homo sapiens, UniProt O43614)                  29%
3  COc1cc(C)c(-c2cccc(C(=O)N(C)C)c2)cc1S(=O)(=O)Nc1cccc(NCCNC(=O)c2cccnc2OC)c1  OX2R (Homo sapiens, UniProt O43614)                  80%
4  COc1ccc(-c2ccccc2F)cc1S(=O)(=O)Nc1cccc(NCCNC(=O)c2cccc(Cl)c2)c1  OX2R (Homo sapiens, UniProt O43614)                  46%
5  COc1ccc(-c2ccccc2F)cc1S(=O)(=O)Nc1cccc(NCCNC(=O)c2ccccn2)c1  OX2R (Homo sapiens, UniProt O43614)                   8%

Field Response (10 μM (%)) (OX2R (Homo sapiens, UniProt O43614)), entry `COc1ccccc1C(=O)NCCNc1cccc(NS(=O)(=O)c2cc(-c3ccccc3OC)ccc2OC)c1` : 73%

Field Response (10 μM (%)) (OX2R (Homo sapiens, UniProt O43614)), entry `COc1ccccc1C(=O)NCCNc1cccc(NS(=O)(=O)c2cccc(-c3cccc(C(=O)N(C)C)c3)c2)c1` : 28%

----------
- TEST TARGET: OX2R (Homo sapiens, UniProt O43614)
- MEASUREMENT DESCRIPTION: Evaluation of agonist activity against OX2R (CHOOX2R cells, Fura2AM fluorescence, FDSS3000)
- CONDITION CONTEXT: OX2R agonist activity; CHOOX2R cells
- Description: Evaluation of Agonist Activity Against OX2R NFAT-luciferase gene and OX2R gene were each constitutively expressed in CHO cell, which is a cell line derived from Chinese hamster ovary to establish a cell line (CHOOX2R). […] After washing, HEPES buffer (75 μL) was added, a test compound solution (25 μL) was added, and changes in the fluorescence intensity were measured by FDSS3000 (Hamamatsu Photonics K.K.). […]
OBSERVATION TYPE: EC50 (nM)
Give the value, in units of nM, as a plain number.

Field EC50 (OX2R (Homo sapiens, UniProt O43614)), entry `COc1cccc(C(=O)NCCNc2cccc(NS(=O)(=O)c3cc(-c4cccc(Cl)c4)ccc3OC)c2)c1` : 800

Field EC50 (OX2R (Homo sapiens, UniProt O43614)), entry `COc1ccccc1C(=O)NCCNc1cccc(NS(=O)(=O)c2cc(-c3cccc(C(=O)N4CCCC4)c3)ccc2OC)c1` : 77

Field EC50 (OX2R (Homo sapiens, UniProt O43614)), entry `COc1ccccc1C(=O)NCCNc1cccc(NS(=O)(=O)c2cc(-c3cccnc3)ccc2OC)c1` : 268

----------
- TEST TARGET: OX2R (Homo sapiens, UniProt O43614)
- Construct: expressed in transfected cells; host or cells: CHO (Chinese hamster ovary) cells constitutively expressing the OX2R gene and NFAT-luciferase (CHOOX2R)
- Sequence (O43614 1-444): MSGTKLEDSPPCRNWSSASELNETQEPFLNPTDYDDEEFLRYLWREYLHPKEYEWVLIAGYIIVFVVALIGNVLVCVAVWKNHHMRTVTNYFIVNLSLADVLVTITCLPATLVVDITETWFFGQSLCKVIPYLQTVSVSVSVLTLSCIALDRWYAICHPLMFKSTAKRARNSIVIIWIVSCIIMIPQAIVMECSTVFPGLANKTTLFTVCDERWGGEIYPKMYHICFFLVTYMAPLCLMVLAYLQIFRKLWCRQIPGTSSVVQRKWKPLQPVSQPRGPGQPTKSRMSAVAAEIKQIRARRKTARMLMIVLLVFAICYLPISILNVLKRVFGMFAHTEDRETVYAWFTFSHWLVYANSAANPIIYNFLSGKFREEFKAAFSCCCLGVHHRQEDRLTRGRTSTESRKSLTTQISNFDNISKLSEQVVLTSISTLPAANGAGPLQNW
- MEASUREMENT DESCRIPTION: Evaluation of agonist activity against OX2R (CHOOX2R cells, Fura2AM fluorescence, FDSS3000)
- Type: cell-based
- CONDITION CONTEXT: test compound 1.0 μM; CHOOX2R cells; relative to orexin-A as full agonist (100%)
Catalogue of Response (1.0 μM (%)) values
Give the value, in units of %, as a plain number.

> print(dat)
                              line.notation                          test.target  measurement.unit  experimental.result
1  COc1ccc(-c2cccc(C(=O)N3CCC3)c2)cc1S(=O)(=O)Nc1cccc(NCCNC(=O)c2cccc(F)c2)c1  OX2R (Homo sapiens, UniProt O43614)                 %                   58

Lookup result for `COc1ccc(-c2cccc(C(=O)N(C)C)c2)cc1S(=O)(=O)Nc1cccc(NCCNC(=O)c2cccc(F)c2)c1` ; measured Response (1.0 μM (%)): 79

Lookup result for `COc1ccc(-c2cccc(C(=O)N3CCC3)c2)cc1S(=O)(=O)Nc1cccc(NCCNC(=O)c2ccccc2Cl)c1` ; measured Response (1.0 μM (%)): 51

----------
- TEST TARGET: OX2R (Homo sapiens)
- Construct: expressed in transfected cells; host or cells: CHO (Chinese hamster ovary) cells constitutively expressing the OX2R gene and NFAT-luciferase (CHOOX2R)
- MEASUREMENT DESCRIPTION: Evaluation of agonist activity against OX2R (CHOOX2R cells, Fura2AM fluorescence, FDSS3000)
- Format: cell-based
- CONDITION CONTEXT: test compound 10 μM; CHOOX2R cells; relative to orexin-A as full agonist (100%)
OBSERVATION TYPE: Response (10 μM (%))
Give the value, in units of %, as a plain number.

> print(dat)
                              line.notation      observation.type  experimental.result
1  COc1ccc(-c2cccc(C(=O)N(C)C)c2)cc1S(=O)(=O)Nc1cccc(NCCNC(=O)c2ccccc2F)c1  Response (10 μM (%))                   94

Lookup result for `COc1ccc(-c2cccc(C(=O)N3CCC3)c2)cc1S(=O)(=O)Nc1cccc(NCCNC(=O)c2cccc(F)c2)c1` ; measured Response (10 μM (%)): 70

Lookup result for `COc1ccc(-c2cccc(C(=O)N3CCCC3)c2)cc1S(=O)(=O)Nc1cccc(NCCNC(=O)c2ccccc2Cl)c1` ; measured Response (10 μM (%)): 80

Lookup result for `COc1ccc(-c2cccc(C(=O)N(C)C)c2)cc1S(=O)(=O)Nc1cccc(NCCNC(=O)c2cccc(Cl)n2)c1` ; measured Response (10 μM (%)): 122

Lookup result for `COc1ccc(F)c(-c2ccc(OC)c(S(=O)(=O)Nc3cccc(NCCNC(=O)c4ccccc4OC)c3)c2)c1` ; measured Response (10 μM (%)): 123

Lookup result for `COc1ccc(-c2cccc(C(=O)N(C)C)c2)cc1S(=O)(=O)Nc1cccc(NCCNC(=O)c2cnccc2Cl)c1` ; measured Response (10 μM (%)): 87

Lookup result for `COc1cccc(-c2ccc(OC)c(S(=O)(=O)Nc3cccc(NCCNC(=O)c4ccccc4OC)c3)c2)n1` ; measured Response (10 μM (%)): 22

----------
- TEST TARGET: OX2R (Homo sapiens, UniProt O43614)
- Construct: expressed in transfected cells; host or cells: CHO (Chinese hamster ovary) cells constitutively expressing the OX2R gene and NFAT-luciferase (CHOOX2R)
- MEASUREMENT DESCRIPTION: Evaluation of agonist activity against OX2R (CHOOX2R cells, Fura2AM fluorescence, FDSS3000)
- Assay type: cell-based
- CONDITION CONTEXT: test compound 0.1 μM; relative to orexin-A as full agonist (100%); CHOOX2R cells
OBSERVATION TYPE: Response (0.1 μM (%))
Give the value, in units of %, as a plain number.

> print(dat)
                              line.notation  experimental.result
1  COc1cc(C)c(-c2cccc(C(=O)N(C)C)c2)cc1S(=O)(=O)Nc1cccc(NCCNC(=O)c2sccc2Cl)c1                   78
2  COc1cc(C)c(-c2cccc(C(=O)N(C)C)c2)cc1S(=O)(=O)Nc1cccc(NCCNC(=O)c2cccc(F)c2)c1                   61

Lookup result for `COc1ccc(-c2ccccc2F)cc1S(=O)(=O)Nc1cccc(NCCNC(=O)c2ccccc2Cl)c1` ; measured Response (0.1 μM (%)): 10
